The following compounds are shown together with reported inhibition values.
Biological target: 6-phosphogluconate dehydrogenase, decarboxylating (Homo sapiens)
Assay: inhibition of human phosphogluconate dehydrogenase – biochemical, recombinant enzyme, NADPH absorbance, primary screen (AID 1159550)
Settings: recombinant 6PGD, NADPH absorbance 341 nm; at 10 µM; stronger effect = higher value
Report only the number, with the unit % understood.

{"compound": "C[C@]12CCC(=O)C=C1CC[C@@H]1[C@@H]2[C@@H](O)C[C@@]2(C)[C@H]1CC[C@]2(O)C(=O)COP(=O)(O)O", "study system": "6-phosphogluconate dehydrogenase, decarboxylating (Homo sapiens)", "inhibition, %": 7.31}

Please look up its inhibition: Cc1c(C(N)=O)cc([N+](=O)[O-])cc1[N+](=O)[O-]
-17.5

And for Nc1ccc(S(N)(=O)=O)cc1 ?
7.71

And for COc1ccc2c(c1)c(CC(=O)OCC(=O)O)c(C)n2C(=O)c1ccc(Cl)cc1 ?
-4.54

###

Assay: EMT-state selective cytotoxicity in co-culture – imaging, PC-3E GFP, TEM4-18 mCherry, primary screen (AID 1345086);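 note: normalised mesenchymal count divided by normalised epithelial count so high means epithelial killing; cells exposed to compound for 72 h before imaging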
Details: PC-3E GFP / TEM4-18 mCherry co-culture, imaging cell counts; at 1 µM; actives lie on both sides; counts scaled to control wells, 1 = unselective
endpoint name: red/green cell ratio (normalised)
Answer field: number only, no words.

{"molecule": "Cc1[nH]c(C)c(Cl)c(=O)c1Cl", "red/green cell ratio (normalised)": 0.99}
{"molecule": "CCN(CC)CCNC(=O)c1cc(Cl)c(N)cc1OC", "red/green cell ratio (normalised)": 1.02}
{"molecule": "S=P(N1CC1)(N1CC1)N1CC1", "red/green cell ratio (normalised)": 0.99}
{"molecule": "CC(=O)OCC1=C(C(=O)O)N2C(=O)[C@@H](NC(=O)Cc3cccs3)[C@H]2SC1", "red/green cell ratio (normalised)": 1.02}
{"molecule": "CCCCC(CC)CN1CN(CC(CC)CCCC)CC(C)(N)C1 (centres undefined)", "red/green cell ratio (normalised)": 1.02}

Please look up its red/green cell ratio (normalised): O=C(O)CCCCC1CCSS1 (centres undefined)
0.99

And for CC(=O)NO ?
1.09

And for Nc1ncnc2c1ncn2[C@@H]1O[C@H](CO)[C@@H](O)[C@H]1O ?
1.15

And for O=C(CCCN1CCN(c2ccccn2)CC1)c1ccc(F)cc1 ?
1.1

###

Assay: polyglutamine aggregate formation blockers (AID 1604)
Conditions: polyglutamine-induced protein aggregation inhibition assay; stronger effect = higher value; concentration not given here
# cutoff 60% applies to inhibition of aggregation; >= gives 1 (yes), < gives 0 (no)

{"compound": "CCn1cc(C(=O)O)c(=O)c2cc(F)c(N3CCNC(C)C3)c(F)c21 (stereo not drawn)", "cat": "1 (yes)"}
{"compound": "NC(=O)c1ncn([C@@H]2O[C@H](CO)[C@@H](O)[C@H]2O)c1O", "cat": "0 (no)"}
{"compound": "Cc1nnc(NS(=O)(=O)c2ccc(N)cc2)s1", "cat": "1 (yes)"}
{"compound": "CCC(=O)c1c(O)cc(O)cc1O", "cat": "0 (no)"}
{"compound": "CN1CCN(CC(=O)N2c3ccccc3C(=O)Nc3cccnc32)CC1", "cat": "1 (yes)"}
{"compound": "CCCCOC(=O)c1ccc(N)cc1", "cat": "0 (no)"}
{"compound": "CC1=C(C(=O)O)N2C(=O)[C@@H](NC(=O)[C@H](N)c3ccc(O)cc3)[C@H]2SC1", "cat": "1 (yes)"}
{"compound": "COC(=O)[C@H]1[C@H]2C[C@@H]3c4[nH]c5cc(OC)ccc5c4CCN3C[C@H]2C[C@@H](OC(=O)c2cc(OC)c(OC)c(OC)c2)[C@@H]1OC", "cat": "1 (yes)"}

hey, is inhibition of aggregation for this one >= 60%? Nc1ccc(S(=O)(=O)Nc2cnc3ccccc3n2)cc1
0 (no)

###

Experiment: modulation of C. elegans fzo-1 (AID 1259413);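 note: fzo-1 mutant C. elegans worms in liquid wells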
Conditions: C. elegans fzo-1 modulator screen, mean read-out
Active and inactive are the calls of the source. How the calls were made is not given here.
Valid outcomes are listed here; reply with one: 1.0 = active, 0.0 = inactive

Example entries and their recorded answers appear below.
{"compound": "Cc1cccc(C)c1OCC(C)N (stereo not given)", "cat": 0.0}
{"compound": "Nc1ccc(O)c(C(=O)O)c1", "cat": 0.0}
{"compound": "CCCOc1ccc(C(=O)OCCN(CC)CC)cc1N", "cat": 1.0}
{"compound": "CCN1CCC[C@H]1CNC(=O)c1cc(S(N)(=O)=O)ccc1OC", "cat": 0.0}

Answer briefly: the call reported for Cc1ccnc2c1NC(=O)c1cccnc1N2C1CC1 in this assay.
0.0

And for Nc1nc(N)nc(-c2cc(Cl)ccc2Cl)n1 ?
0.0

And for CN1CCN(C2=Nc3cc(F)ccc3Cc3ccccc32)CC1 ?
0.0

And for Clc1ccc2c(c1)CCc1cccnc1C2=C1CCNCC1 ?
0.0

###

The following molecules are shown together with reported nuclear beta-catenin stimulation values.
Experiment: Wnt pathway potentiators raising nuclear beta-catenin – imaging, WNT3A-conditioned medium, mouse C2C12, NPC library, primary screen (AID 1117326)
Conditions: at 10 µM, stronger effect = higher value
Report only the number, with the unit % understood.

{"molecule": "CCCCOc1ccc(C(=O)CCN2CCCCC2)cc1", "recorded value": 1.2}
{"molecule": "Fc1ccc(C(c2ccc(F)cc2)N2CCN(C/C=C/c3ccccc3)CC2)cc1", "recorded value": 1.1}
{"molecule": "CCC(=O)c1c(O)cc(O)cc1O", "recorded value": 1.8}

Please look up its nuclear beta-catenin stimulation: CC(C)(C(=O)c1cccnc1)c1cccnc1
4.8

And for CNNCc1ccc(C(=O)NC(C)C)cc1 ?
-2

And for Nc1nc(=S)c2[nH]cnc2[nH]1 ?
14.8

And for Cc1cnc(NC(=O)C2=C(O)c3ccccc3S(=O)(=O)N2C)s1 ?
2

And for Cc1[nH]c(C)c(Cl)c(=O)c1Cl ?
1.4

And for COc1ccc(CC2c3cc(OC)c(OC)cc3CC[N+]2(C)CCC(=O)OCCCCCOC(=O)CC[N+]2(C)CCc3cc(OC)c(OC)cc3C2Cc2ccc(OC)c(OC)c2)cc1OC (stereo not drawn) ?
21.5

And for CCn1cc(C(=O)O)c(=O)c2cc3c(cc21)OCO3 ?
0.2

And for O=c1cc(CO)occ1O ?
2.6

And for CCOC(=O)C(C)(C)Oc1ccc(Cl)cc1 ?
0

And for CC[C@]12CCCN3CCc4c(n(c5ccccc45)C(=O)C1)[C@@H]32 ?
35.1

###

Test: yeast 75Q aggregation reduction – 75Q-TubU reporter (AID 1593)
Conditions: Yeast 75Q polyglutamine aggregation reporter
The following molecules are shown together with reported score values.
Answer field: number only, no words.

As a guide, the following entries are already answered.
{"molecule": "NC(=O)c1ncn([C@@H]2O[C@H](CO)[C@@H](O)[C@H]2O)n1", "recorded value": 1.56}
{"molecule": "Nc1ccc(S(=O)(=O)Nc2nccs2)cc1", "recorded value": 1.37}

Please look up its score: O=C(COc1ccc(Cl)cc1)N1CCN(Cc2ccc3c(c2)OCO3)CC1
1.15

And for CCCCC1C(=O)N(c2ccccc2)N(c2ccccc2)C1=O ?
0.64

And for CC/C(=C(/CC)c1ccc(O)cc1)c1ccc(O)cc1 ?
0.36

###

Test: NPC library primary testing for decreased DLD-1 cell viability via CellTiter-Glo (AID 1117346)
Details: DLD-1 viability, CellTiter-Glo luminescence; at 20 µM (top of the series)
The source made the active and inactive calls.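 Rule for the calls: active = compounds that lower survival of DLD-1 colon cancer cells in the luminescence readout, no cutoff given; inactive = the rest.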
Valid outcomes are listed here; reply with one: active, inactive

Example entries and their recorded answers appear below.
{"molecule": "CC[N+](C)(C)Cc1ccccc1Br", "cat": "inactive"}
{"molecule": "O=C(O)CCNC(=O)c1ccc(N=Nc2ccc(O)c(C(=O)O)c2)cc1", "cat": "inactive"}

Answer briefly: the call reported for Cc1cc(C2CCCCC2)n(O)c(=O)c1 in this assay.
active

And for CC[C@]12CCCN3CCc4c(n(c5ccccc45)[C@@](O)(C(=O)OC)C1)[C@@H]32 ?
inactive

And for C=CC(N)CCC(=O)O (stereo not given) ?
inactive

###

Experiment: reduced SW480 viability measured with CellTiter-Glo, NPC library, primary (AID 1117343)
Conditions: CellTiter-Glo luminescence; at 20 µM (top of the series)
Calls of active or inactive are those of the source.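 The calls were made as follows: active = compounds that lower viability of the colon cancer cells in the luminescence readout, with no numeric limit stated; inactive = the rest.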
Valid outcomes are listed here; reply with one: 1 = active, -1 = inactive

{"compound": "CN(Cc1cc(Br)cc(Br)c1N)C1CCCCC1", "cat": 1}
{"compound": "OC[C@H]1O[C@@H](Oc2ccc(O)cc2)[C@H](O)[C@@H](O)[C@@H]1O", "cat": 1}
{"compound": "O=C(OCC(O)CO)c1ccccc1Nc1ccnc2cc(Cl)ccc12 (stereo not given)", "cat": 1}
{"compound": "COc1cc(NS(=O)(=O)c2ccc(N)cc2)nc(OC)n1", "cat": -1}
{"compound": "CC(C)(C)NC(=O)[C@H]1CC[C@H]2[C@@H]3CC[C@H]4NC(=O)C=C[C@]4(C)[C@H]3CC[C@]12C", "cat": -1}

Answer briefly: the call reported for Nc1ccc(S(=O)(=O)NC(=O)c2ccccc2)cc1 in this assay.
-1

And for CO[C@H]1C=CO[C@@]2(C)Oc3c(C)c(O)c4c(O)c(c(/C=N/N5CCN(C)CC5)c(O)c4c3C2=O)NC(=O)/C(C)=C\C=C[C@H](C)[C@H](O)[C@@H](C)[C@@H](O)[C@@H](C)[C@H](OC(C)=O)[C@@H]1C ?
1

And for CCCc1nc(C)c2c(=O)[nH]c(-c3cc(S(=O)(=O)N4CCN(CC)CC4)ccc3OCC)nn12 ?
-1

And for COC(=O)[C@@H]1[C@H]2C[C@H]3c4[nH]c5ccccc5c4CCN3C[C@@H]2CC[C@@H]1O ?
-1

And for COC(=O)C1=C(C)NC(C)=C(C(=O)OCC(C)C)C1c1ccccc1[N+](=O)[O-] (stereo not given) ?
1
